Test: In vivo pharmacokinetic experiments in beagle dogs
Settings: male, plasma, po; beagle dog, 5 mg/kg P.O.
RESULT TYPE: Cmax (ng/mL)
Numbers only, in ng/mL.

// Cmax value for CN[C@@]1(c2ccc(C(F)(F)F)cc2)CCC[C@](C)(O)C1=O.Cl [Compound 73] : 1020

----------
Test: In vivo pharmacokinetic experiments in beagle dogs
Conditions: male, plasma, iv; beagle dog, 1 mg/kg i.v.; read-out: Vss
RESULT TYPE: Vd
Answer format: value, then unit.

// Vd value for CN[C@@]1(c2ccc(C(F)(F)F)cc2)CCC[C@](C)(O)C1=O.Cl [Compound 73] : 1.93 L/kg

----------
Assay: In vivo pharmacokinetic experiments in beagle dogs
Settings: male, plasma, po; beagle dog, 5 mg/kg P.O.
RESULT TYPE: MRT

// MRT value for CN[C@@]1(c2ccc(C(F)(F)F)cc2)CCC[C@](C)(O)C1=O.Cl [Compound 73] : 2.57 h

----------
Assay: Solid-state chemical stability under different storage conditions (liquid chromatography)
Type: physicochemical
Conditions: 40° C., 75% RH; 30 days
Counter-ions that a name gives are not always drawn.
RESULT TYPE: Stability of solid state compound, 30 Days (%)
Answer format: value, then unit.

Below are worked cases with known answers.
// Stability of solid state compound, 30 Days (%) value for Cl.NC1(c2cccc(F)c2F)CCCC(O)C1=O (centres unmarked) [Comparative compound 12, reference compound] : 94.59%

// Stability of solid state compound, 30 Days (%) value for CN[C@@]1(c2ccccc2Cl)CCC[C@](C)(O)C1=O.Cl [Compound 69] : 98.34%

// Stability of solid state compound, 30 Days (%) value for CN[C@@]1(c2ccc(C(F)(F)F)cc2)CCC[C@](C)(O)C1=O.Cl [Compound 73] : 99.89%

// Stability of solid state compound, 30 Days (%) value for Cl.NC1(c2c(F)cc(F)cc2F)CCCC(O)C1=O (centres unmarked) [Comparative compound 13, reference compound] : 96.04%

// Stability of solid state compound, 30 Days (%) value for CNC1(c2cccc(C#N)c2)CCCC(C)(O)C1=O.Cl (centres unmarked) [Compound 63] : 99.66%

// Stability of solid state compound, 30 Days (%) value for CC1(O)CCCC(N)(c2cccc(C#N)c2)C1=O.Cl (centres unmarked) [Compound 47] : 98.86%

// Stability of solid state compound, 30 Days (%) value for CC1(O)CCCC(N)(c2c(F)cc(F)cc2F)C1=O (centres unmarked) [Compound 44, hydrochloride] : 98.35%

More entries:
// Stability of solid state compound, 30 Days (%) value for CC1(O)CCCC(N)(c2cccc(F)c2F)C1=O.Cl (centres unmarked) [Compound 48] : 99.17%

----------
Experiment: Solid-state chemical stability under different storage conditions (liquid chromatography)
Assay type: physicochemical
Settings: 40° C., 75% RH; 5 days
Consider the following compounds; for each one, report its Stability of solid state compound, 5 Days (%).
One number for each entry, in %.

Below are worked cases with known answers.
// Stability of solid state compound, 5 Days (%) value for CN(C)[C@@]1(c2ccc(C(F)(F)F)cc2)CCC[C@@](C)(O)C1=O.Cl [Compound 72] : 99.66

// Stability of solid state compound, 5 Days (%) value for CC1(O)CCCC(N)(c2cccc(C#N)c2)C1=O.Cl (stereo not shown) [Compound 47] : 98.86

// Stability of solid state compound, 5 Days (%) value for CNC1(c2cccc(C#N)c2)CCCC(C)(O)C1=O.Cl (stereo not shown) [Compound 63] : 99.66

// Stability of solid state compound, 5 Days (%) value for CC1(O)CCCC(N)(c2cccc(F)c2F)C1=O.Cl (stereo not shown) [Compound 48] : 99.28

// Stability of solid state compound, 5 Days (%) value for CN[C@@]1(c2cccc(OC(F)(F)F)c2)CCC[C@](C)(O)C1=O.Cl [Compound 68] : 99.11

Lab note: each compound below needs its Stability of solid state compound, 5 Days (%) filled in.
1. CN[C@@]1(c2ccc(C(F)(F)F)cc2)CCC[C@](C)(O)C1=O.Cl [Compound 73]
2. N[C@@]1(c2ccccc2Cl)CCC[C@@H](O)C1=O [(2R,6R)-HNK, reference compound]

## Output
99.90
98.54
